target: T1, cynomolgus galectin-10-His, WGS isoform (cynomolgus)
T1 construct: also called cynoGal10-WGS; not shown: His tag
T1 chain: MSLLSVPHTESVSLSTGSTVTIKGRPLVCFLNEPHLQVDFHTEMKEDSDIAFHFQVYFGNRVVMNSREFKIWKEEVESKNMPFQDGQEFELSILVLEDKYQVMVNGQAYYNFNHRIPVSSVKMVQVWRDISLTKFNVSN
assay_overview: binding ELISA (summary table)
Checkbox rule: EC50 lower than 1 nM = Y; EC50 not lower than 1 nM = N.

Previously resolved entries follow.
binder	category
11F02 scFv-human Fc (Fc fusion, also called 011F02; not shown: CH2-CH3 constant domains of human IgG1 (pUPEX50 scFv-Fc fusion vector)) scFv: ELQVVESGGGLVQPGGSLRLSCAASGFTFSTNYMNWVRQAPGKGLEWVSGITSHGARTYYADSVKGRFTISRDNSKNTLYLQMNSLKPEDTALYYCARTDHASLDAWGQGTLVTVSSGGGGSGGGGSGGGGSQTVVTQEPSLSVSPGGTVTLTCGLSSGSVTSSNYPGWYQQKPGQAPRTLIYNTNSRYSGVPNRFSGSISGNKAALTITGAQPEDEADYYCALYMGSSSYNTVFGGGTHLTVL	N
10D02 scFv-human Fc (Fc fusion, also called 010D02; not shown: CH2-CH3 constant domains of human IgG1 (pUPEX50 scFv-Fc fusion vector)) scFv: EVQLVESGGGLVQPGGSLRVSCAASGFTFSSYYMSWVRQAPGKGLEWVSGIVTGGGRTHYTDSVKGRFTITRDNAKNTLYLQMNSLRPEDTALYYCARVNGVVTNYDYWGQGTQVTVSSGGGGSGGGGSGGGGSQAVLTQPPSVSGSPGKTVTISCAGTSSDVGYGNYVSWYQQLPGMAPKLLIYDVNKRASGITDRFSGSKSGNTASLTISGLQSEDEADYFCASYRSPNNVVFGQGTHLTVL	N
8H11 scFv-human Fc (Fc fusion, also called 008H11; not shown: CH2-CH3 constant domains of human IgG1 (pUPEX50 scFv-Fc fusion vector)) scFv: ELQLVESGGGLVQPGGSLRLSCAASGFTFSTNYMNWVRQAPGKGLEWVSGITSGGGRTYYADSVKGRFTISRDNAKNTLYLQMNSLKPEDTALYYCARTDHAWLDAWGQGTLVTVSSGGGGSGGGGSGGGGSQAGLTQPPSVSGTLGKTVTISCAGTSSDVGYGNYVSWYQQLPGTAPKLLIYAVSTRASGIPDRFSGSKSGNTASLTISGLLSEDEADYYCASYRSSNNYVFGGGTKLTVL	Y
7B07 scFv-human Fc (Fc fusion, also called 007B07; not shown: CH2-CH3 constant domains of human IgG1 (pUPEX50 scFv-Fc fusion vector)) scFv: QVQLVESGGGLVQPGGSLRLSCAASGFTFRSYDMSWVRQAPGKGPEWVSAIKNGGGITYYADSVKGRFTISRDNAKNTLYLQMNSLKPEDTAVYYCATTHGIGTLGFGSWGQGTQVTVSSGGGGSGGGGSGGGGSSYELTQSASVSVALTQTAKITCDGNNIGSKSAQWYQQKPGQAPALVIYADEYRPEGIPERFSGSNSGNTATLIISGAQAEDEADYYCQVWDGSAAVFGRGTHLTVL	Y

Hello, I'm reviewing records and need to know if EC50 of 10B02 scFv-human Fc (Fc fusion, also called 010B02; not shown: CH2-CH3 constant domains of human IgG1 (pUPEX50 scFv-Fc fusion vector)) scFv: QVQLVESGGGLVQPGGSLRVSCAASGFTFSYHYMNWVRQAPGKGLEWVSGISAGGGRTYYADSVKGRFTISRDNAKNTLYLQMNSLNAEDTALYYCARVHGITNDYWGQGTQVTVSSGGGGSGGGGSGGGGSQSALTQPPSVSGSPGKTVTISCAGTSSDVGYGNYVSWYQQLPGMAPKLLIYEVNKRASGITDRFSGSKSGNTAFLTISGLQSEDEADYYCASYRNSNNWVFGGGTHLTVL is below 1 nM. Could you check?
Y
